// data source = ChEMBL document CHEMBL5344453

Here, each record is paired with measured ΔTm data.
- System: Quadruplex DNA
- TEST METHOD NOTES: Stabilization of G-quadruplex VEGF 5-FAM-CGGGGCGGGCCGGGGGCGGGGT-TAMRA-3 (unknown origin) assessed as change in melting temperature at 1 uM incubated for 1 hr in dark condition by FRET-based melting assay
- Type: nucleic-acid assay

>  <MOLECULE>
Nc1ccc(-n2cc(-c3ccc4oc5ccccc5c4c3)nn2)cc1

>  <STUDY TARGET>
Quadruplex DNA

>  <ΔTm>
< 6 °C

$$$$
>  <MOLECULE>
Nc1nc(CC(=O)Nc2nc(CC(=O)NCCCn3cc(-c4ccc5[nH]c6ccccc6c5c4)nn3)cs2)cs1

>  <STUDY TARGET>
Quadruplex DNA

>  <ΔTm>
< 5.5 °C

$$$$
>  <MOLECULE>
CN(C)CCCn1cc(-c2ccc3oc4ccccc4c3c2)nn1

>  <STUDY TARGET>
Quadruplex DNA

>  <ΔTm>
< 6 °C

$$$$

Input line: For CN(C)CCCNC(=O)c1ccc(-n2cc(-c3ccc4[nH]c5ccccc5c4c3)nn2)cc1 , what is its reported ΔTm?
Output line: 3.5 °C

Input line: Can you look up the measured ΔTm of NCCCCC(N)C(=O)Nc1ccc(-n2cc(-c3ccc4oc5ccccc5c4c3)nn2)cc1 (stereo not given) for me?
Output line: < 6 °C
